Record form. Attribute: PBM binding z-score. Fill in for each entry.
Test system: RARa:RXR (NR concentration 270 nM, RXRa partner concentration 90 nM)
Test: PBM binding z-score (relative to random genomic background probes); higher = stronger binding; sequences stand for … in GC…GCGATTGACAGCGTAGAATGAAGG
Answers are plain numbers.

{"SEQUENCE_INPUT": "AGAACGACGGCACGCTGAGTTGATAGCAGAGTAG", "MEASURED_TARGET": "RARa:RXR (NR concentration 270 nM, RXRa partner concentration 90 nM)", "PBM binding z-score": -0.447}

# map each sequence to its PBM binding z-score
1. CCTACTGGGCCACGAAAGCTCATTGATTCAGTGA
2. TCACGGAGGACACGAAAGGTCAGAGCTCGACATC
3. CGTCAAAGTTCAACTAAGGTAACGCAAAGCACGC
4. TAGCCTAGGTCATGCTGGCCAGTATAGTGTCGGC
5. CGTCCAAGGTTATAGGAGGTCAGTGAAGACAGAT

Response:
1: -0.778; 2: 4.8; 3: 4.22; 4: 2.21; 5: 3.66

###

System: RXRa homodimer (NR concentration 180 nM)
Experiment: PBM binding z-score (relative to random genomic background probes); higher = stronger binding; sequences stand for … in GC…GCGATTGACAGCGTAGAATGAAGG
Label rule, in plain words: PBM binding z-score of 1 and up is y, under 1 is n.

{"SEQUENCE_INPUT": "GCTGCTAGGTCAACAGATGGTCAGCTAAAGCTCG", "ASSIGNED_CATEGORY": "y"}
{"SEQUENCE_INPUT": "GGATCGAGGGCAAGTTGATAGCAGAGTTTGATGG", "ASSIGNED_CATEGORY": "n"}
{"SEQUENCE_INPUT": "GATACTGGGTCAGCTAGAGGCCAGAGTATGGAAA", "ASSIGNED_CATEGORY": "y"}
{"SEQUENCE_INPUT": "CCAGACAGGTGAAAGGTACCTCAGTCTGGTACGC", "ASSIGNED_CATEGORY": "y"}
{"SEQUENCE_INPUT": "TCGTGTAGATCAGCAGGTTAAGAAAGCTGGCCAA", "ASSIGNED_CATEGORY": "n"}

As a next step, examine the sequence that follows.
Prompt: Record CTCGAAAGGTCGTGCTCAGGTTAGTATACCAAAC ; criterion: PBM binding z-score no lower than 1. Met?
Response: y

###

Field: PBM binding z-score. Provide a value for each of the sequences that follow.
Tested on: THRa homodimer (NR concentration 90 nM)
Assay: PBM binding z-score (relative to random genomic background probes); higher = stronger binding; sequences stand for … in GC…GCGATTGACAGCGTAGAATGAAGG

{"SEQUENCE_INPUT": "TTACCAAGGTGAAGGTCGTTGATCCCTCTGTAGA", "PBM binding z-score": 1.1}
{"SEQUENCE_INPUT": "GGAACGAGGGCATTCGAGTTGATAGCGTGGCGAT", "PBM binding z-score": -0.46}
{"SEQUENCE_INPUT": "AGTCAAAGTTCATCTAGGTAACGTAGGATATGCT", "PBM binding z-score": 0.358}
{"SEQUENCE_INPUT": "TTACCCAGGTGAGCTGAGGTCGTTGATCCAACTC", "PBM binding z-score": 1.8}

List PBM binding z-score for every entry below, keeping the order given.
1. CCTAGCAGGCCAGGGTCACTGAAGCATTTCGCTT
2. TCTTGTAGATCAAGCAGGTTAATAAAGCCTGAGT

Response:
1.02
-0.531
